Target: T1, RHAU53 peptide (DHX36 fragment) (UniProt Q9H2U1)
T1 chain: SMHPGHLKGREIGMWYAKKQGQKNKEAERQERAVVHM
Assay: EMSA; Kd1, first shift; EMSA and MST: 25 mM Tris-HCl pH 7.5, 150 mM KCl, 1 mM MgCl2, 37 C 30 min; 30 nM (EMSA) or 40 nM (MST) FAM-oligo; EMSA gel 10% native PAGE, 0.5x TBE, 4 C
Conditions: label: 3'-FAM; G4
pKd: −log10 of the molar value.
Measured pKd accompanies every entry in the list below.
measuredProperty: pKd

# binder, measuredProperty, valueObserved
measured = [
    ("GGGUUGCGGAGGGUGGGCCU (structured_RNA, 5'-hexynyl clicked to AHPC-PEG2 (VHL ligand)) [FAM_rG4_A_PEG2 (FAM_rG4_A)]", "pKd", 7.17),
    ("GGGUUGCGGAGGGUGGGCCU (structured_RNA, 5'-hexynyl clicked to pomalidomide-PEG2) [FAM_rG4_P_PEG2]", "pKd", 6.88),
    ("TTGGGTGGGTGGGTGGGT (structured_DNA, 5'-hexynyl clicked to AHPC-PEG2) [FAM_dG4_A (T95-2T)]", "pKd", 6.50),
    ("GGGUUGCGGAGGGUGGGCCU (structured_RNA, 5'-hexynyl clicked to pomalidomide-C6) [FAM_rG4_P_C6]", "pKd", 6.79),
    ("GGGUUGCGGAGGGUGGGCCU (structured_RNA, 5'-hexynyl clicked to pomalidomide-PEG1-C2) [FAM_rG4_P_PEG1-C2]", "pKd", 6.76),
    ("GGGUUGCGGAGGGUGGGCCU (structured_RNA, 5'-hexynyl clicked to AHPC-C6) [FAM_rG4_A_C6]", "pKd", 7.15),
]
